For each record, write down the corresponding self-cleavage kobs at 2500 uM GlcN6P.
B1: glmS ribozyme (parent)
chain: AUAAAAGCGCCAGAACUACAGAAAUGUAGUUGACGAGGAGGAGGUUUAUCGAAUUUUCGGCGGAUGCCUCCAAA

variants of: B1; assay: self-cleavage kobs at 2500 uM GlcN6P; higher = faster cleavage; RNA array; conditions: with glucosamine-6-phosphate
Variants at the floor of the assay were thinned out.
The reply should be a number in s⁻¹, with the unit left off.

Which self-cleavage kobs at 2500 uM GlcN6P value is on record for AUAAAAGCGCCAGAAUUACAGAAAUGUAGUUGACGAGGAGGAGGUAUAUCGAAUUUUCGGCGGAUGCCUCCAAA [C16U U46A] ?
0.00176

Which self-cleavage kobs at 2500 uM GlcN6P value is on record for AUAAAAGCGCCAGCACUACAGAAAUGUAGUUGACGAGGAGGAGGAUUAUCGAAUUUUCGGCGGUUGCCUCCAAA [A14C U45A A64U] ?
4.3e-05

Which self-cleavage kobs at 2500 uM GlcN6P value is on record for AUAAAAGCGCCAGAACUACAGAAAUGUAGUUGACGAGGAGUGGGUUUAUCGAAUUUUCGGCGGAUGCCUCCAAA [G41U A42G] ?
0.000816

Which self-cleavage kobs at 2500 uM GlcN6P value is on record for AUAAAAGCGCCAGAACUACAGAAAUGUAGUUGACGAGGAGGAGGUUUAUCGAAGUUUCGGCGGAUGCCGCCAAA [U54G U69G] ?
8.77e-05

Which self-cleavage kobs at 2500 uM GlcN6P value is on record for AUAAAAGCGCCAGAACUACAGAAAUGUACUUGACGAGGAGGAGGUUUAUCGAAUUUUCGGCGGAUGCCUACAAA [G29C C70A] ?
4.33e-05

Which self-cleavage kobs at 2500 uM GlcN6P value is on record for AUAAAAGCGCCAGAACUACAGAAAUGUAAUUGGCGAGGAGGAGGUUUAUCGAAUUUUCGGCGGAUGCCACCAAA [G29A A33G U69A] ?
4.9e-05

Which self-cleavage kobs at 2500 uM GlcN6P value is on record for AUAAAAGCGCCAAAAUUACAGAAAUGUAGUUGACGAGGAGGAGGUUUAUCGAAUUUUCGGCGGAUGUCUCCAAA [G13A C16U C67U] ?
0.000111

Which self-cleavage kobs at 2500 uM GlcN6P value is on record for AUAAAAGCGCCAGAACUACAGAAAUGUAGUUGACGAGGAGGAGGUAUAUCGAAUUCUCGGCGGAUGCCUCCAAA [U46A U56C] ?
0.000362

Which self-cleavage kobs at 2500 uM GlcN6P value is on record for AUAAAAGCGCCAGAACUACAGAAAUGUAGUUGAUGAGGAGGAGGUUUAUCGAAUUUUCGGCGUGUGCCUCCAAA [C34U G63U A64G] ?
0.000111

Which self-cleavage kobs at 2500 uM GlcN6P value is on record for AUAAAAGCGCCAGCACUACAGAAAUGUAGUUAACGAGGAGGAGGUUUAUCGAAUUUUCGGCGGAUGGCUCCAAA [A14C G32A C67G] ?
6.42e-05

Which self-cleavage kobs at 2500 uM GlcN6P value is on record for AUAAACGCGCCAGAACUACAGAAAUGUAGUUGACGAGGAGGAGGUUUAUCGAAGUUUCGGCGGAUGCCUCCAAA [A6C U54G] ?
3.94e-05

Which self-cleavage kobs at 2500 uM GlcN6P value is on record for AUAAAAGCGCCAGAAUUACAGAAAUGUAGUUGACGAGGAGGAGGUUUAUUGAAUUUUCGGCGGAUGCCGCCAAA [C16U C50U U69G] ?
7.21e-05

Which self-cleavage kobs at 2500 uM GlcN6P value is on record for AUAAAAGCGCCAGACCUACAGAAAUGUAGUUGACGAGGAGGAGGUUUAUCGAAUUUUCGGCGGAUUCCCCCAAA [A15C G66U U69C] ?
4.52e-05

Which self-cleavage kobs at 2500 uM GlcN6P value is on record for AUAAAAGCGCCAGAACUACAGAAAUGUAGUUGACGAGGAGGAGGUGUAUCGAAUUUUCGGCGGAUUUCUCCAAA [U46G G66U C67U] ?
0.000172

Which self-cleavage kobs at 2500 uM GlcN6P value is on record for AUAAAAGCGCCAGACCUACAGAAAUGUAGUUGACGAGGAGGAGGUUUAUCGAAUCUUCGGCGGAUGCCUCCAAA [A15C U55C] ?
0.00302

Which self-cleavage kobs at 2500 uM GlcN6P value is on record for AUAAAAGCGCCAGAACUACAGAAAUGUAGUUAACGAGGAGGAGCUUUAUCGAAUUUUCGGCGGAUGUCUCCAAA [G32A G44C C67U] ?
0.000148

Which self-cleavage kobs at 2500 uM GlcN6P value is on record for AUAAAAGCGCCAGAACUACAGAAAUGUAGUUGACGAGGAGGAGGUUUAUCGAAUUUUCGGCGGAUGCUCUCAAA [C68U U69C C70U] ?
3.99e-05

Which self-cleavage kobs at 2500 uM GlcN6P value is on record for AUAAAAGCGCCAGGACUACAGAAAUGUAGUUGACGAGGAGGAGGUUUAUCGUAUUUUCGGCGGAUGCCUCCAAA [A14G A52U] ?
0.000274

Which self-cleavage kobs at 2500 uM GlcN6P value is on record for AUAAAAGCGCCAGCACUACAGAAAUGUAGUUGACGAGGAUGAGGUUUAUCGAGUUUUCGGCGGAUGCCUCCAAA [A14C G40U A53G] ?
0.000325

Which self-cleavage kobs at 2500 uM GlcN6P value is on record for AUAAAAGCGCCAGAACUACAGAAAUGUAGUUGACGAGGAGGAGGUUGAUCGAAUGUUCGGCGGAUGCCUCCAAA [U47G U55G] ?
0.00249

Which self-cleavage kobs at 2500 uM GlcN6P value is on record for AUAAAAGCGCCAGAACUACAGAAAUGUAGUUGACGAGGGUGAGGUUUAUCGAAAUUUCGGCGGAUGCCUCCAAA [A39G G40U U54A] ?
0.000126

Which self-cleavage kobs at 2500 uM GlcN6P value is on record for AUAAAAGCGCCAGAACUACAGAAAUGUAGUUGACGAGGAGGAGGUUUAUCGAAUAUUCGGCGGAUGCCUCUAAA [U55A C71U] ?
0.00755

Which self-cleavage kobs at 2500 uM GlcN6P value is on record for AUAAAAGCGCCAGAACUACAGAAAUGUAGUUGACGAGGAGGAGGUUUAUCGAAUGUUCGGCGGACGCCUUCAAA [U55G U65C C70U] ?
0.000458

Which self-cleavage kobs at 2500 uM GlcN6P value is on record for AUAAAAGCGCCAGAACUACAGAAAUGUAGGUGACGAGGCGGAGGUUUAUCGAAUUUUCGGCGGAUGCCUCCAAA [U30G A39C] ?
0.000787

Which self-cleavage kobs at 2500 uM GlcN6P value is on record for AUAAAAGCGCCAGAACUACAGAAAUGUAUGUGACGAGGUGGAGGUUUAUCGAAUUUUCGGCGGAUGCCUCCAAA [G29U U30G A39U] ?
0.0013

Which self-cleavage kobs at 2500 uM GlcN6P value is on record for AUAAAAGCGCCAGAACUACAGAAAUGUAGUUGACGAGGAGGAGGUUUAUAGAAUUUUCGGCGGAUGCAUCCAAA [C50A C68A] ?
4.65e-05

Which self-cleavage kobs at 2500 uM GlcN6P value is on record for AUAAAAGCGCCAGAAAUACAGAAAUGUAGUUGACGAGGAGGAGGUUUAUCGAAUUUUCGGCGGAUGCUUCCAAA [C16A C68U] ?
6.55e-05

Which self-cleavage kobs at 2500 uM GlcN6P value is on record for AUAAAAGCGCCAGAACUCCAGAAAUGUAGUUGACGAGGAGGAGGUUUAUCGAAUUCUCGGCGGAGGCCUCCAAA [A18C U56C U65G] ?
0.000131

Which self-cleavage kobs at 2500 uM GlcN6P value is on record for AUAAAAGCGCCAGAACUACAGAAAUGUAGUUGACGAGGAGGAGGUUUGUCGAAUGUUCGGCGGAUGCCUCCAAA [A48G U55G] ?
0.000108

Which self-cleavage kobs at 2500 uM GlcN6P value is on record for AUAAAAGCGCCAGAACUACAGAAAUGUAGUUGACGAGGAGGAGGUCUAUCGAAUGUUCGGCGGAUGCCUCCAAA [U46C U55G] ?
0.00259

Which self-cleavage kobs at 2500 uM GlcN6P value is on record for AUAAAAGCGCCAGAGCUACAGAAAUGUAGUUGACGAGGAGGAGGUUUAUCGAAUUUUCGGCGGGUGCCUCCAAA [A15G A64G] ?
0.00698

Which self-cleavage kobs at 2500 uM GlcN6P value is on record for AUAAAAGCGCCAGCACUACAGAAAUGUAGUUGACGAGGAGGAGGUUUAUCGAAUUUUCGGCGGAUGCUUCCAAA [A14C C68U] ?
0.000305

Which self-cleavage kobs at 2500 uM GlcN6P value is on record for AUAAAAGCGCCAGAGCUACAGAAAUGUAGUUGACGAGGAGGAGGUUUAUCGAAUUUUCGGCGGAUCCCUCCAAA [A15G G66C] ?
0.000793

Which self-cleavage kobs at 2500 uM GlcN6P value is on record for AUAAAAGCGCCAGAACUACAGAAAUGUAGUUGACGAGGAGGAGGUUUAUCGAAUUUUCGGCGGAGGCCACCAAA [U65G U69A] ?
0.000116

Which self-cleavage kobs at 2500 uM GlcN6P value is on record for AUAAAAGCGCCAGAACUACAGAAAUGUAGUUGACGAGGAGGAGGUUUUUCGAAUAUUCGGCGGAUGCCUCCAAA [A48U U55A] ?
0.000269

Which self-cleavage kobs at 2500 uM GlcN6P value is on record for AUAAAAGCGCCGGAAUUACAGAAAUGUAGUUGACGAGGAGGAGGUUUAUCGAAUUUUCGGCGGAUGCCUCCAAA [A12G C16U] ?
0.00036

Which self-cleavage kobs at 2500 uM GlcN6P value is on record for AUAAAAGCGCCAGGAAUACAGAAAUGUAGUUGACGAGGAAGAGGUUUAUCGAAUUUUCGGCGGAUGCCUCCAAA [A14G C16A G40A] ?
0.00023

Which self-cleavage kobs at 2500 uM GlcN6P value is on record for AUAAAAGCGCCAGAACUACAGAAAUGUAGUUGACGAGGAGGAGGUUUAUGGAAUUUUCGGCGGAUGCCUCUAAA [C50G C71U] ?
0.000103

Which self-cleavage kobs at 2500 uM GlcN6P value is on record for AUAAAAGCGCCAGAACUACAGAAAUGUAGUUGACGAGGAGGAGGUUUUUCGAAUUUUCGGCGGUUGCCUCCAAA [A48U A64U] ?
4.13e-05

Which self-cleavage kobs at 2500 uM GlcN6P value is on record for AUAAAAGCGCCAGAACUACAGAAAUGUAGUUGACGAGGAGGAGGCUUAUCGAAUUUUCGGCGGAUGCCUCCAAA [U45C] ?
0.00247

Which self-cleavage kobs at 2500 uM GlcN6P value is on record for AUAAAAGCGCCAGAACUACAGAAAUGUAGUUGACGAAGAGGAGGUUUAUCGAAUGUUCGGCGGAUGCCUUCAAA [G37A U55G C70U] ?
0.000106

Which self-cleavage kobs at 2500 uM GlcN6P value is on record for AUAAAAGCGCCAGUACUACAGAAAUGUAGUUGUCGAGGAGGAGGUUUAUCGAAUUUUCGGCGGAUGCCUCCAAA [A14U A33U] ?
2.81e-05

Which self-cleavage kobs at 2500 uM GlcN6P value is on record for AUAAAAGCGCCAGUACUACAGAAAUGUAGUUGACGAGGAGGAGGUUUAUCGUAUUUUCGGCGGAUGCCUCCAAA [A14U A52U] ?
7.62e-05

Which self-cleavage kobs at 2500 uM GlcN6P value is on record for AUAAAAGCGCCAGGACUACAGAAAUGUAGUUGACGAGGAGGAGGUUUAUCGAAUUGUCGGCGGAUGCCUCCAAA [A14G U56G] ?
0.0673

Which self-cleavage kobs at 2500 uM GlcN6P value is on record for AUAAAAGCGCCAGACCUACAGAAAUGUAGUUGACGAGGAGGAGGUAUAUCGAAUUUUCGGCGGAUGCCUCCAAA [A15C U46A] ?
0.000152
